assay_protocol: Selectivity index, ratio of IC50 for human HepG2A16 cells to IC50 for ring stage Plasmodium falciparum W2
Format: toxicity
test_context: read-out: Ratio IC50
value_type: selectivity ratio
// return a plain number; no unit text

Task: selectivity ratio for CCN(CC)CCCNc1c2ccc(Cl)cc2nc2c3ccccc3n(CCN3CCCC3)c12 ?
Output: 52

Task: Try the compound CCN(CC)CCCNc1c2ccc(Cl)cc2nc2c3cc(Cl)ccc3n(CCN3CCOCC3)c12
Output: 49

Task: Please answer likewise for CCN(CC)CCCNc1c2ccc(Cl)cc2nc2c3cc(Cl)ccc3n(CCN3CCCC3)c12
Output: 78

Task: Try CCN(CC)CCNc1c2ccc(Cl)cc2nc2c3ccccc3n(CCN3CCCC3)c12 next.
Output: 40

Task: Another compound: Clc1ccc2c(NCCCN3CCOCC3)c3c(nc2c1)c1cc(Cl)ccc1n3CCN1CCCC1
Output: 41

Task: And the next one, CCN(CC)CCOc1cc(Cl)cc2nc3c4cc(Cl)ccc4n(CCN(CC)CC)c3cc12 ?
Output: 212

Task: Proceed to CCN(CC)CCCC(C)Nc1c2ccc(Cl)cc2nc2c3cc(Cl)ccc3n(CCN3CCCC3)c12 (centres undefined)
Output: 52

Task: Same question, CCN(CC)CCCNc1c2ccc(Cl)cc2nc2c3ccccc3n(CCN3CCOCC3)c12 this time
Output: 41

Task: Record: Clc1ccc2c(NCCCN3CCCCC3)c3c(nc2c1)c1ccccc1n3CCN1CCCC1
Output: 37

----------
assay_protocol: Inhibition of beta-hematin formation after 5 to 6 hrs by pyridine-ferrichrome detergent-mediated assay
Format: physicochemical
Please use yes for IC50 under 20 µM and no for everything else, ties included.

Task: Lab note: confirm whether the reported IC50 for this molecule is below 20 µM, equality not counting. molecule: CCN(CC)CCCNc1c2ccc(Cl)cc2nc2c3cc(Cl)ccc3n(CCN3CCOCC3)c12
Output: no

Task: Next molecule: Clc1ccc2c(NCCCN3CCCCC3)c3c(nc2c1)c1ccccc1n3CCN1CCCC1
Output: no

Task: Same question, CCN(CC)CCCC(C)Nc1c2ccc(Cl)cc2nc2c3ccccc3n(CCN3CCCC3)c12 (stereo not given) this time
Output: yes

Task: Also check Clc1ccc2c(NCCCN3CCCCC3)c3c(nc2c1)c1cc(Cl)ccc1n3CCN1CCCC1
Output: yes

----------
Test system: Plasmodium falciparum
assay_protocol: Antimalarial activity against ring stage Plasmodium falciparum 3D7 infected with human red blood cells incubated for 48 hrs by SYBR Green method
Type: functional, organism-based
test_context: 3D7, 48 h
Provide the reported pIC50 of each item.
Kindly note that pIC50 refers to -log10 of the concentration in mol/L and answer with the value alone.

Task: Using the record for CCN(CC)CCCC(C)Nc1c2ccc(Cl)cc2nc2c3cc(Cl)ccc3n(CCN3CCCC3)c12 (centres undefined) , report its pIC50.
Output: 6.34

Task: Okay, and CCN(CC)CCCC(C)Nc1c2ccc(Cl)cc2nc2c3ccccc3n(CCN3CCCC3)c12 (centres undefined) ?
Output: 6.61

Task: Next entry: CCN(CC)CCCNc1c2ccc(Cl)cc2nc2c3ccccc3n(CCN3CCCC3)c12
Output: 6.32

Task: Record: Clc1ccc2c(NCCCN3CCOCC3)c3c(nc2c1)c1ccccc1n3CCN1CCCC1
Output: 6.33

Task: What do you get for CCN(CC)CCCNc1c2ccc(Cl)cc2nc2c3ccccc3n(CCN3CCOCC3)c12 ?
Output: 6.49

Task: And what about the compound Clc1ccc2c(NCCCN3CCOCC3)c3c(nc2c1)c1cc(Cl)ccc1n3CCN1CCCC1 ?
Output: 6.39

Task: Try this compound next: Clc1ccc2c(NCCN3CCCC3)c3c(nc2c1)c1cc(Cl)ccc1n3CCN1CCCC1
Output: 6.43

Task: Now give it for Clc1ccc2c(NCCCN3CCCCC3)c3c(nc2c1)c1ccccc1n3CCN1CCCC1 too.
Output: 6.27

Task: Same again, this time with Clc1ccc2c(NCCCN3CCCCC3)c3c(nc2c1)c1cc(Cl)ccc1n3CCN1CCCC1
Output: 6.18
